- tested system: BRD4 BD2 (Homo sapiens)
- assay overview: AlphaScreen binding assay, BRD4 Bromodomain 2
pIC50: −log10 of the molar value.
value kind: pIC50

// known answers, use as guide
[[record]]
molecule_smiles = "COC(=O)N1c2ccc(-c3cnn(CC(C)(C)O)c3)cc2N(C(=O)OC(C)C)C[C@@H]1C"
tested_system = "BRD4 BD2 (Homo sapiens)"
data_value = "6.30 to 7.30"

[[record]]
molecule_smiles = "COC(=O)N1c2ccc(-c3ccc(N(C)S(C)(=O)=O)cc3)cc2N(C(=O)Oc2ccccn2)C[C@@H]1C"
tested_system = "BRD4 BD2 (Homo sapiens)"
data_value = "6.30 to 7.30"


Please supply pIC50 for each of the following items, keeping them in order.
1. CNC(=O)CN(C)C(=O)c1ccc(-c2ccc3c(c2)N(C(=O)OC(C)C)C[C@H](C)N3C(=O)OC)cc1
2. CC(=O)N1c2ccc(-c3ccc(N(C)C)cc3)cc2N(C(=O)c2ccco2)C[C@@H]1C
3. CC(=O)N1c2ccc(-c3ccc(S(=O)(=O)n4cccn4)cc3)cc2N(C(=O)OC(C)C)C[C@@H]1C

Result:
6.30 to 7.30
> 7.30
< 6.30

Go through the items and report each one's pIC50.
1. CC(=O)N1c2ccc(-c3ccc4c(c3)CCN4S(C)(=O)=O)cc2N(C(=O)C2CC2)C[C@@H]1C
2. COc1ncccc1C(=O)N1C[C@H](C)N(C(C)=O)c2ccccc21

Result:
> 7.30
< 6.30
